All values here come from paper PMC4552634.

system: P. falciparum stage V gametocytes; parameters: BacTiter-Glo ATP luminescence viability of purified stage V gametocytes in 384-well plates, per cent inhibition versus DMSO; conditions: 48 h, 5 µM; inhibitor
The whole screen tested about 13,000 compounds, of which about 3,200 (25%) showed an effect of 50% or more. The list shows a part of the results.
Please go through the items and note down their % Inhibition.
Give the number; % is assumed, so skip it.

query: Which % Inhibition value is on record for CC[C@H](C)CNC(=O)c1ccnc(-c2ccc(CNC3Cc4ccccc4C3)cc2)c1 ?
result: 2.834

query: Which % Inhibition value is on record for CC(C)CNC(=O)c1cncc(-c2ccc(CNC3Cc4ccccc4C3)cc2)c1 ?
result: -1.576

query: Which % Inhibition value is on record for CC(C)CC(=O)N(Cc1ccc(-c2ccc(CNC3Cc4ccccc4C3)cc2)cc1)C1CCNCC1 ?
result: 118.6

query: Which % Inhibition value is on record for O=C(Nc1ccc(-c2cccc(CN3CCC(O)CC3)c2)cc1)c1cccc(Cl)c1 ?
result: -3.105

query: Which % Inhibition value is on record for CCCNC(=O)c1ccnc(-c2ccc(CNC3Cc4ccccc4C3)cc2)c1 ?
result: 1.364

query: Which % Inhibition value is on record for [O-][S+]1c2ccccc2Sc2ccccc21 ?
result: -7.237
